test name: Phase 1 pharmacokinetic study of a single oral dose of 20 mg E4 monohydrate in female subjects with normal hepatic function and mild, moderate or severe hepatic impairment (plasma, LC-MS/MS, non-compartmental analysis)
Format: in vivo, human
condition notes: female, human, plasma, po, 20 mg, Moderate hepatic impairment; single oral dose 20 mg E4 monohydrate; plasma; read-out: Cmax, Mean
recorded metric: Cmax

1) C[C@]12CC[C@@H]3c4ccc(O)cc4CC[C@H]3[C@@H]1[C@@H](O)[C@@H](O)[C@@H]2O ... ~52 ng/mL

----------
test name: Phase 1 pharmacokinetic study of a single oral dose of 20 mg E4 monohydrate in female subjects with normal hepatic function and mild, moderate or severe hepatic impairment (plasma, LC-MS/MS, non-compartmental analysis)
Format: in vivo, human
condition notes: female, human, plasma, po, 20 mg, Severe hepatic impairment; single oral dose 20 mg E4 monohydrate; plasma; read-out: AUC0-24 h, Mean
recorded metric: AUC(0-t) (ng·h/mL)

1. C[C@]12CC[C@@H]3c4ccc(O)cc4CC[C@H]3[C@@H]1[C@@H](O)[C@@H](O)[C@@H]2O ... 184
